- target under test: U1A (U1 RNA-binding protein, co-crystallization chaperone) (human, UniProt P09012 1-102)
- Sequence (P09012 1-102): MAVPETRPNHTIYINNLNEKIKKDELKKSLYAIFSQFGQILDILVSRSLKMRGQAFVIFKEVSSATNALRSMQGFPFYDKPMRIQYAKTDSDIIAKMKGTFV
- experiment: ITC; TMR-DN presence in this assay not stated; ITC: 20 mM Tris-HCl pH 7.5, 100 mM KCl, 0-10 mM MgCl2, 25 C (described for RNA-fluorophore titrations; U1A conditions not separately given)
- settings: protein: recombinant; four-way junction; U1A hairpin loop
measured property: pKd
Bear in mind: pKd is minus log10 of a mol/L concentration; give just that figure.

Name the reported pKd value associated with the binder RhoBAST-U1A Loop (L2'-U1) (structured_RNA) RNA: GGAACCUCCGCCCAUUGCACUCCGGGCGGUGAAGGAGAGGCGCAAGGUUAACCGCCUCAGGUUCC
8.10

The origin of these recorded values is paper PMC11101630.
